Documented melting point across a set of compounds

Sample answers from the record:
{"structure": "CCNC(=O)Nc1ccc2c(C#N)c(-c3ccc(OCC)cc3)n(CC)c2c1", "reportedValue": "249 to 250 °C"}
{"structure": "CCn1c(-c2ccc(N3CCNS3(=O)=O)cc2)c(C#N)c2ccc(OC)cc21", "reportedValue": "215 to 216 °C"}
{"structure": "CCn1c(COc2ccccc2)c(C#N)c2ccc(OC)cc21", "reportedValue": "123.4 to 123.8 °C"}
{"structure": "CCn1c(C#Cc2ccc(NC=O)cc2)c(C#N)c2ccc(OC)cc21", "reportedValue": "184 to 188 °C"}
{"structure": "CCn1cc(-c2ncco2)c2ccc(C(=O)OC)cc21", "reportedValue": "118 to 123 °C"}

API: the following record is the query input.
Note down melting point recorded for CCNC(=O)NCCOc1ccc(-c2c(C#N)c3ccc(OC)cc3n2CC)cc1
197 to 202 °C
